Values from the RNAGym collection of RNA variant scans (doi:10.1126/science.aae0568)

B1: tRNA (parent)
chain: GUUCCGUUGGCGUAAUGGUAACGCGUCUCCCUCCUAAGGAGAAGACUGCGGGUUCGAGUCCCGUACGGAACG

Variants of: B1
Assay summary: yeast fitness relative to wild type (ratio to wild type); higher = fitter; tRNA-Arg(CCU), competitive growth, 37 C, YPD
Variants at the floor of the assay were thinned out.

{"columns": ["Variant notation", "yeast fitness"],
 "data": [
  ["G10C U26A C27U C34U C49U", 0.602],
  ["G23C C46U C62U", 0.592],
  ["A42U C62G", 0.596]
]}
